Tested on: female ICR mice
Test: hEPO mRNA lipid nanoparticles in mice, serum EPO by ELISA
Assay type: in vivo
Conditions: hEPO mRNA LNP, 0.5 mg/kg, tail vein injection, blood e.g. 6 hours after administration, relative to MC3 LNP positive control
readout type: EPO expression relative to MC3

molecule: CCCCCCCCC(CCCCCC)COC(=O)CCCCCN(CCCCCC(=O)OCC(CCCCCC)CCCCCCCC)CCCCCC(=O)N1CCC(O)(CN(C)C)CC1 (stereo not drawn)
readout type: EPO expression relative to MC3
result: Not detected

molecule: CCCCCCCCC(CCCCCCCC)COC(=O)CCCCCN(CCCCCC(=O)OCC(CCCCCCCC)CCCCCCCC)CC1(O)CCN(C(=O)CCCCN(C)C)CC1
readout type: EPO expression relative to MC3
result: Not detected

====

Provide the reported Encapsulation efficiency (EE %) of each item.
Test: Encapsulation efficiency of lipid nanoparticles (Quant-it Ribogreen RNA assay)
Type: physicochemical
Settings: LNP cationic lipid/DSPC/cholesterol/PEG-lipid 50:10:38.5:1.5 with mRNA
One number for each entry, in %.

In the examples that follow, each entry is paired with its recorded Encapsulation efficiency (EE %).
compound: CCCCCCCCC(CCCCCCCC)COC(=O)CCCCCN1CCC(O)(CN(CCCCCC(=O)OCC(CCCCCCCC)CCCCCCCC)C2CCC2)CC1 [Compound 8]
readout type: Encapsulation efficiency (EE %)
result number: 93.7
//
compound: CCCCCCCCC(CCCCCCCC)COC(=O)CCCCCN(CCCCCC(=O)OCC(CCCCCCCC)CCCCCCCC)CC1(O)CCN(C(=O)CCCN(C)C)CC1 [Compound 1]
readout type: Encapsulation efficiency (EE %)
result number: 99.1
//
compound: CCCCCCCCC(CCCCCCCC)COC(=O)CCCCCN(CCCCCC(=O)OCC(CCCCCCCC)CCCCCCCC)CC1(O)CCN(C(=O)CCCCN(C)C)CC1 [Compound 4]
readout type: Encapsulation efficiency (EE %)
result number: 98.4
//
compound: CCCCCCCCC(CCCCCC)COC(=O)CCCCCN(CCCCCC(=O)OCC(CCCCCC)CCCCCCCC)CCN1CCC(O)(CN(C)CC)CC1 (centres unmarked) [Compound 10]
readout type: Encapsulation efficiency (EE %)
result number: 96.7
//
compound: CCCCCCCCC(CCCCCC)COC(=O)CCCCCN(CCCCCC(=O)OCC(CCCCCC)CCCCCCCC)CCN1CCC(O)(CN(C)C)CC1 (centres unmarked) [Compound 14]
readout type: Encapsulation efficiency (EE %)
result number: 97.3
//
compound: CCCCCCCCC(CCCCCC)CC(=O)OCC(CCCCN1CCC(O)(CN(C)C)CC1)COC(=O)CC(CCCCCC)CCCCCCCC (centres unmarked) [Compound 15]
readout type: Encapsulation efficiency (EE %)
result number: 94.3
//
compound: CCCCCCCCC(CCCCCC)COC(=O)CCCCCN(C)CC1(O)CCN(CCCCCC(=O)OCC(CCCCCC)CCCCCCCC)CC1 (centres unmarked) [Compound 11]
readout type: Encapsulation efficiency (EE %)
result number: 96.8
//
compound: CCCCCCCCC(CCCCCCCC)COC(=O)CCCCCN(CCCCCC(=O)OCC(CCCCCCCC)CCCCCCCC)CCC(=O)N1CCC(O)(CN(C)C)CC1 [Compound 7]
readout type: Encapsulation efficiency (EE %)
result number: 97.6
//
compound: CCCCCCCCC(CCCCCC)COC(=O)CCCCCN1CCC(O)(CN(CCCCCC(=O)OCC(CCCCCC)CCCCCCCC)C2CCCCC2)CC1 (centres unmarked) [Compound 13]
readout type: Encapsulation efficiency (EE %)
result number: 83.9
//
compound: CCCCCCCCC(CCCCCCCC)COC(=O)CCCCCN(CCCCCC(=O)OCC(CCCCCCCC)CCCCCCCC)CC1(O)CCN(C(=O)CN(C)C)CC1 [Compound 3]
readout type: Encapsulation efficiency (EE %)
result number: 97.3

Could you report Encapsulation efficiency (EE %) for every entry in the following list?
1. CCCCCCCCC(CCCCCCCC)COC(=O)CCCCCN(CCCCCC(=O)OCC(CCCCCCCC)CCCCCCCC)CC1(O)CCN(CCC)CC1 [Compound 6]
2. CCCCCCCCC(CCCCCCCC)COC(=O)CCCCCN(CCCCCC(=O)OCC(CCCCCCCC)CCCCCCCC)CC1(O)CCN(C)CC1 [Compound 2]
3. CCCCCCCCC(CCCCCC)COC(=O)CCCCCN(CCCCCC(=O)OCC(CCCCCC)CCCCCCCC)CCCCCC(=O)N1CCC(O)(CN(C)C)CC1 (centres unmarked) [Compound 9]

1. 92.8
2. 98.1
3. 97.6

Value of measured Encapsulation efficiency (EE %) for the entry CCCCCCCCC(CCCCCC)COC(=O)CCCCCN1CCC(O)(CN(CCCCCC(=O)OCC(CCCCCC)CCCCCCCC)C2CCCC2)CC1 (centres unmarked) [Compound 12] : 81.5

====

Experiment: Size and polydispersity of lipid nanoparticles by dynamic light scattering
Type: physicochemical
Conditions: LNP cationic lipid/DSPC/cholesterol/PEG-lipid 50:10:38.5:1.5 with mRNA
Label rule, in plain words: Polydispersity index (PDI) of 0.06 and up is yes (1), under 0.06 is no (0).

Worked examples follow.
compound: CCCCCCCCC(CCCCCC)COC(=O)CCCCCN(CCCCCC(=O)OCC(CCCCCC)CCCCCCCC)CCN1CCC(O)(CN(C)CC)CC1 (stereo not drawn) [Compound 10]
assigned label: yes (1)
//
compound: CCCCCCCCC(CCCCCC)COC(=O)CCCCCN(CCCCCC(=O)OCC(CCCCCC)CCCCCCCC)CCCCCC(=O)N1CCC(O)(CN(C)C)CC1 (stereo not drawn) [Compound 9]
assigned label: yes (1)
//
compound: CCCCCCCCC(CCCCCCCC)COC(=O)CCCCCN(CCCCCC(=O)OCC(CCCCCCCC)CCCCCCCC)CCC(=O)N1CCC(O)(CN(C)C)CC1 [Compound 7]
assigned label: yes (1)
//
compound: CCCCCCCCC(CCCCCCCC)COC(=O)CCCCCN(CCCCCC(=O)OCC(CCCCCCCC)CCCCCCCC)CC1(O)CCN(CCC)CC1 [Compound 6]
assigned label: no (0)

In plain terms: is recorded Polydispersity index (PDI) at least 0.06 for CCCCCCCCC(CCCCCC)COC(=O)CCCCCN1CCC(O)(CN(CCCCCC(=O)OCC(CCCCCC)CCCCCCCC)C2CCCC2)CC1 (stereo not drawn) [Compound 12] ?
yes (1)

====

System: female ICR mice
Assay: hEPO mRNA lipid nanoparticles in mice, serum EPO by ELISA
Format: in vivo
Settings: hEPO mRNA LNP, 0.5 mg/kg, tail vein injection, blood e.g. 6 hours after administration, relative to MC3 LNP positive control
Experimental: Lipid nanoparticles including human erythropoietin (hEPO) mRNA encapsulated by compound in the following table were administered at a dose of 0.5 mg/kg to female ICR mice at 6-8 weeks of age (Xipuer-Bikai, Shanghai) via tail vein injection. Mouse blood samples were taken at specific time points (e.g., 6 hours) after administration. […] The following table lists the characteristics of the tested lipid nanoparticles, including the expression levels measured from the test group above MC3.

compound: CCCCCCCCC(CCCCCC)COC(=O)CCCCCN(CCCCCC(=O)OCC(CCCCCC)CCCCCCCC)CCN1CCC(O)(CN(C)CC)CC1 (centres unmarked) [Compound 10]
EPO expression relative to MC3: Not detected
//
compound: CCCCCCCCC(CCCCCCCC)COC(=O)CCCCCN(CCCCCC(=O)OCC(CCCCCCCC)CCCCCCCC)CCC(=O)N1CCC(O)(CN(C)C)CC1 [Compound 7]
EPO expression relative to MC3: Not detected
//
compound: CCCCCCCCC(CCCCCC)COC(=O)CCCCCN(CCCCCC(=O)OCC(CCCCCC)CCCCCCCC)CCN1CCC(O)(CN(C)C)CC1 (centres unmarked) [Compound 14]
EPO expression relative to MC3: Not detected

====

I'd be grateful if you could share measured Size (nm) for these entries.
Test: Size and polydispersity of lipid nanoparticles by dynamic light scattering
Type: physicochemical
Details: LNP cationic lipid/DSPC/cholesterol/PEG-lipid 50:10:38.5:1.5 with mRNA
Answers are plain numbers, in nm.

These solved cases illustrate the format of a correct answer.
compound: CCCCCCCCC(CCCCCCCC)COC(=O)CCCCCN(CCCCCC(=O)OCC(CCCCCCCC)CCCCCCCC)CC1(O)CCN(C(=O)CCCCN(C)C)CC1 [Compound 4]
scale unit: nm
Size (nm): 55.63
//
compound: CCCCCCCCC(CCCCCCCC)COC(=O)CCCCCN(CCCCCC(=O)OCC(CCCCCCCC)CCCCCCCC)CCC(=O)N1CCC(O)(CN(C)C)CC1 [Compound 7]
scale unit: nm
Size (nm): 43.78
//
compound: CCCCCCCCC(CCCCCCCC)COC(=O)CCCCCN1CCC(O)(CN(CCCCCC(=O)OCC(CCCCCCCC)CCCCCCCC)C2CCC2)CC1 [Compound 8]
scale unit: nm
Size (nm): 54.23

For the 3 compounds below, give their Size (nm) values.
1. CCCCCCCCC(CCCCCC)COC(=O)CCCCCN(CCCCCC(=O)OCC(CCCCCC)CCCCCCCC)CCCCCC(=O)N1CCC(O)(CN(C)C)CC1 (stereo not drawn) [Compound 9]
2. CCCCCCCCC(CCCCCC)COC(=O)CCCCCN1CCC(O)(CN(CCCCCC(=O)OCC(CCCCCC)CCCCCCCC)C2CCCC2)CC1 (stereo not drawn) [Compound 12]
3. CCCCCCCCC(CCCCCCCC)COC(=O)CCCCCN(CCCCCC(=O)OCC(CCCCCCCC)CCCCCCCC)CC1(O)CCN(C)CC1 [Compound 2]

[35.26, 109.1, 80.02]
